SYSTEM_TESTED: T1, biotinylated hBLyS-ECD (human, UniProt Q9Y275 134-285, biotinylated with Biotin-X-X-NHS (molar ratio 7:1); sites not stated)
T1 construct: also called biotinylated immunogen; biotinylated hBLvS-ECD
EXPERIMENTAL_DETAILS: competition ELISA; competitor 67A2E1D10
// reported inhibitory rate (%) per item
Please provide the amount together with its unit, number first.

67A2E1D10 (antibody, V domains shown, Mouse hybridoma antibody purified on Protein G) VH: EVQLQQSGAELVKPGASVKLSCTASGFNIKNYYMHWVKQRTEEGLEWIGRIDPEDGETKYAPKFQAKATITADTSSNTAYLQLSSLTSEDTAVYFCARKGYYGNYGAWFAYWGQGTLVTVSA VL: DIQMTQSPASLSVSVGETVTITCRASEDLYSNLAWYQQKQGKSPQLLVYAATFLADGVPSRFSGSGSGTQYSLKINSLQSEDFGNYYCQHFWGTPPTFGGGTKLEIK    93%

# binder 35E6F7C3 (antibody, V domains shown, Mouse hybridoma antibody purified on Protein G) VH: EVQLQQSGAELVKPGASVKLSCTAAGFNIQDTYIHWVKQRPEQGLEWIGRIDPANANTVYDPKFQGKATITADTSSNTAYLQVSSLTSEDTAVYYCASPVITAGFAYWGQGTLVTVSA VL: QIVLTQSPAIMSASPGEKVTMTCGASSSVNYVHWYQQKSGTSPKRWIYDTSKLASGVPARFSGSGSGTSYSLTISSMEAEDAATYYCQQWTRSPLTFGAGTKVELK ; its inhibitory rate (%) = 33%

What the record says about 8E7D9C7F5 (antibody, V domains shown, Mouse hybridoma antibody purified on Protein G) VH: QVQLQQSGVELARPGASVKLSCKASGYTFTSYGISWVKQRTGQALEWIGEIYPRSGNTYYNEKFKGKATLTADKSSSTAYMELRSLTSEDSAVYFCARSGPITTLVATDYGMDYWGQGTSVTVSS VL: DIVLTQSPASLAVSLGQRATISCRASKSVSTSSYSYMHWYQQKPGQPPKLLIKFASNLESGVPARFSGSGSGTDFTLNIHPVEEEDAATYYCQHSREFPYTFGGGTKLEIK : inhibitory rate (%) is 96%

Consider 93C6F10D3 (antibody, V domains shown, Mouse hybridoma antibody purified on Protein G) VH: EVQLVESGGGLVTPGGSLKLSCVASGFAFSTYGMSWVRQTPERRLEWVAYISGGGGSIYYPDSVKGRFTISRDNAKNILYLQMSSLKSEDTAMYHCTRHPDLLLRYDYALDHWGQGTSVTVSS VL: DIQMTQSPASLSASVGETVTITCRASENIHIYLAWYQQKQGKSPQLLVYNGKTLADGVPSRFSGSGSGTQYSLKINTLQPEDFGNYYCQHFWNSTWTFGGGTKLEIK . Its measured inhibitory rate (%) is 97%

Lab note: 111D10D6G3 (antibody, V domains shown, Mouse hybridoma antibody purified on Protein G) VH: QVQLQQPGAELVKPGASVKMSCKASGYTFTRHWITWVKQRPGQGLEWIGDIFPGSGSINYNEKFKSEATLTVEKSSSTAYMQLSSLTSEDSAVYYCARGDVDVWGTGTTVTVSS VL: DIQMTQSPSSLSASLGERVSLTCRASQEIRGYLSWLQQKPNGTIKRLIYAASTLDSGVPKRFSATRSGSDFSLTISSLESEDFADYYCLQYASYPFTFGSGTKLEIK gave inhibitory rate (%) of 96%
